- measurement.description: self-splicing fitness, log relative to wild type (ln ratio); higher = more splicing; Tetrahymena group I intron in knt gene, E. coli kanamycin selection, DiMSum; sequences stand for … in CUCUCU…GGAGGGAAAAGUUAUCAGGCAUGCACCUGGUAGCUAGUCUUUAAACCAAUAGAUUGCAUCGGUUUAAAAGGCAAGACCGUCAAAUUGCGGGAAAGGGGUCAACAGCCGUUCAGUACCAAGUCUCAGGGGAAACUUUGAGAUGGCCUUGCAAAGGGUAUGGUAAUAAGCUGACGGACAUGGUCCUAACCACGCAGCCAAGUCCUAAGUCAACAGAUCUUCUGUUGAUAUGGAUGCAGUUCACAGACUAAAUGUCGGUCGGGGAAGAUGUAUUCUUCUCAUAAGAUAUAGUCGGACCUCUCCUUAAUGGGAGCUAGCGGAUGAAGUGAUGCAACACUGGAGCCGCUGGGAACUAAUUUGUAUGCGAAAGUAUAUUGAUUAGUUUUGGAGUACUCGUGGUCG;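 further: selection with 25 µg/mL kanamycin versus none on LB agar overnight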
- setup.conditions: 30 °C

| sequence.chain | self-splicing fitness (ln) |
| --- | --- |
| CUGAAGCAAUAUUACGACUG | 0.187 |
| GAUAAGCAAUAUUACGUUUG | -2.07 |
| CAACAGCAAUAUUACGGUAC | -4.95 |
| GUACAGCAAUAUUACGCGCU | -1.36 |
| GGGUAGCAAUAUUACGCAAG | -1.59 |
| GCAAAGCAAUAUUACGCGUC | -2.92 |
| AUGUAGCAAUAUUACGGGGA | -2.26 |
| CGCAAGCAAUAUUACGAAUG | -1.4 |
| AGUUAGCAAUAUUACGUCUC | -3.73 |
| AUUCAGCAAUAUUACGGUUC | -1.64 |
| AAACAGCAAUAUUACGUCUC | -3.42 |
| GAUGAGCAAUAUUACGCACU | -2.71 |
| GCGCAGCAAUAUUACGGAUG | -1.72 |
| AUUAAGCAAUAUUACGUGAG | -0.882 |
| GCAGAGCAAUAUUACGGUCU | -3.54 |
| AAAAAGCAAUAUUACGCCAG | -2.24 |

====

- measurement.description: self-splicing fitness, log relative to wild type (ln ratio); higher = more splicing; Tetrahymena group I intron in knt gene, E. coli kanamycin selection, DiMSum; sequences stand for … in CUCUCU…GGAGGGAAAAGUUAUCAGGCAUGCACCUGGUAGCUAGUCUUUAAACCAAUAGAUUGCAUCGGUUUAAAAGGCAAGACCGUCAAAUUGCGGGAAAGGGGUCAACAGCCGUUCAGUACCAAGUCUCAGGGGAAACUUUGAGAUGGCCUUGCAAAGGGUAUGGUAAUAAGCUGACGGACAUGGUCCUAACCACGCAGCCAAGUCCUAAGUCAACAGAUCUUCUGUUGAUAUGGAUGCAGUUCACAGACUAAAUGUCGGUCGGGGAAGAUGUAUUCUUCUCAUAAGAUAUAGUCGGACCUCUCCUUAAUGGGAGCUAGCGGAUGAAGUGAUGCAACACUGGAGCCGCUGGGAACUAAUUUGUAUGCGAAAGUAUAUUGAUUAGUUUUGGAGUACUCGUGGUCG
- setup.conditions: 30 °C
readout.kind: self-splicing fitness (ln)

| sequence.chain | reading |
| --- | --- |
| GGGUAGCAAUAUUACGCUGG | -2.61 |
| AGGCAGCAAUAUUACGCAGG | -1.39 |
| UGAGAGCAAUAUUACGGAUU | -3.39 |
| GAGUAGCAAUAUUACGAUGC | -1.79 |
| GCGAAGCAAUAUUACGUCGG | -2.61 |
| UCCAAGCAAUAUUACGUCGA | -0.163 |
| AACCAGCAAUAUUACGCUAC | -2.63 |
| UACCAGCAAUAUUACGGACG | -0.177 |
| GCAGAGCAAUAUUACGAGUA | -3.23 |
| GAACAGCAAUAUUACGUCGG | -2.64 |
| GUCCAGCAAUAUUACGUGUU | -1.52 |
| GAGCAGCAAUAUUACGAUGG | -3.68 |
| ACACAGCAAUAUUACGCAAU | -3.32 |
| AGUAAGCAAUAUUACGAGGU | -2.56 |
| UACUAGCAAUAUUACGCGUC | -2.73 |
| CUGCAGCAAUAUUACGGUGC | -3.97 |

Each recorded value in this set is attributed to the supplement of paper PMC7877785.
